test system: PPARg:RXRa IVT, anti-PPARg (NR concentration 270 nM, RXRa partner concentration 90 nM); assay: PBM binding z-score (relative to random genomic background probes); higher = stronger binding; sequences stand for … in GC…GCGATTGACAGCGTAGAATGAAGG
Property: PBM binding z-score; scope: individual sequences

# PRIMARY SEQUENCE, PBM binding z-score
rows = [
    ("CAAACTAGGTCAACGGAAGGTCAAAGTCCGCATG", 8.61),
]

In the following, a different sequence is considered.
**Query** # get_value(readout= PBM binding z-score, system= PPARg:RXRa IVT, anti-PPARg (NR concentration 270 nM, RXRa partner concentration 90 nM)) for `CCTAGCAGGCCAATCTGAGTCACTCAAGGCTTGA`
**Result** 0.0725

---

tested on: PPARg:RXRa DBDmut IVT, anti-RXR (DBD mutation: RXRa K156A/R161A, NR concentration 270 nM, RXRa partner concentration 90 nM); experiment: PBM binding z-score (relative to random genomic background probes); higher = stronger binding; sequences stand for … in GC…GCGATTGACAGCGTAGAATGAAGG
Property: PBM binding z-score; scope: individual sequences
Number only, no unit.

Worked examples follow.
# PRIMARY SEQUENCE, REPORTED VALUE
data = [
    ("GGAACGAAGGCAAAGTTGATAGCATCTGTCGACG", -0.211),
    ("TCTAGCAGGCCAGGGGGTCACTCAAGAGGTACGG", 1.72),
    ("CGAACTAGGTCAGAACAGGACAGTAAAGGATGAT", 7.08),
    ("CGAACGAGGGCATGAGTTGATAGCCAATGCCGAT", 3.14),
    ("AGAATGAGGTAACCAAAGATCAGGGAAACGCTTG", 3.05),
]

**Query** So what does the record say about PBM binding z-score for `TCTGCTAGGTCAACGATGCTCAGCTAATCTGCTA` ?
**Result** 4

**Query** So what does the record say about PBM binding z-score for `ACTAGCAGGCCAAGGGTCACGCAAGATTAGTCCG` ?
**Result** 1.52

**Query** So what does the record say about PBM binding z-score for `TCTCGGAGGACACGAAGATCAGAGCTTTCCAGAG` ?
**Result** 1.06

**Query** So what does the record say about PBM binding z-score for `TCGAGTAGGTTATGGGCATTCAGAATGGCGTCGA` ?
**Result** 1.95

**Query** So what does the record say about PBM binding z-score for `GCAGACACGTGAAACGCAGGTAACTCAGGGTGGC` ?
**Result** -1.12

**Query** So what does the record say about PBM binding z-score for `AGTATGAGGTTAAGATCAGGGAAACAGAATACAT` ?
**Result** 0.462

**Query** So what does the record say about PBM binding z-score for `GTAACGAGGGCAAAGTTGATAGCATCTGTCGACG` ?
**Result** 4.16

---

test system: THRa:RXRa (NR concentration 90 nM, RXRa partner concentration 90 nM); test: PBM binding z-score (relative to random genomic background probes); higher = stronger binding; sequences stand for … in GC…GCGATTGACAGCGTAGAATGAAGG
Property: PBM binding z-score; scope: individual sequences

**Query** So what does the record say about PBM binding z-score for `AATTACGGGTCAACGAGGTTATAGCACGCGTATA` ?
**Result** 4.18

**Query** So what does the record say about PBM binding z-score for `AGAACGAGGGCACGCTGAGTTGATATCAGAGTAG` ?
**Result** 1.89

**Query** So what does the record say about PBM binding z-score for `TCTAGTTGCTCAAAGGTCACACACTCGAAATGCG` ?
**Result** 3.76

**Query** So what does the record say about PBM binding z-score for `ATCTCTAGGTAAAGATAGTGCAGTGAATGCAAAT` ?
**Result** 0.223

**Query** So what does the record say about PBM binding z-score for `CGTCCAAGGTCATAGGAGGTCAGTAAAGACAGAT` ?
**Result** 5.25

**Query** So what does the record say about PBM binding z-score for `TCTACTAGTTGAAGGGCAACCGACGAGTCCGTTT` ?
**Result** -0.216

Sourced from the supplement of paper PMC6555819
